These entries and their values trace back to ChEMBL document CHEMBL1157539.

Below, each entry is listed alongside its reported XC50.
Tested on: Plasmodium falciparum
assayNotes: GSK_TCMDC: Inhibition of Plasmodium falciparum 3D7 in whole erythrocytes, using parasite LDH activity as an index of growth.
Assay type: functional, organism-based
details: Plasmodium falciparum, 3D7
Report only the number, with the unit nM understood.

Examples from the recorded data:
CC(C)CCCC(C)(C)NC[C@@H](O)[C@H](Cc1ccccc1)NC(=O)c1cccc(CCC2CC2)c1 :: 796
Cc1c(C(=O)N(C)C)sc2c1c(=O)n(Cc1ccccc1)c(=O)n2CC(=O)Nc1ccccc1F :: 657
O=C(Nc1ccccc1)N(Cc1ccc(-c2ccc(CNCc3ccc4c(c3)OCO4)cc2)cc1)C1CCN(Cc2ccccc2)CC1 :: 570
COc1cc(C(F)(F)F)c2cc(CNCCCNc3nc4ccccc4[nH]3)[nH]c2c1 :: 305
CS(=O)(=O)c1ccc(-c2cncc(Nc3cccc([N+](=O)[O-])c3)c2)cc1 :: 773
CC[C@H]1CN2CC[C@@H]1C[C@H]2[C@H](O)c1cc(N2CCC(O)(c3ccccc3)CC2)nc2ccc(OC)cc12 :: 90
Cc1cc2nc(-c3ccc(C(=O)NCCCc4ccccc4)cc3)[nH]c2cc1C :: 1180
COC(=O)C(NC(=O)c1ccc(-c2ccc(-c3nc4ccccc4[nH]3)s2)cc1)c1ccc(O)cc1 (centres undefined) :: 738

Briefly, XC50 measured for O=C1SC(S)=NC1=CNCCCCCCO : 850

Measured XC50, O=C(NC1CCC(N2CCCC(OCc3ccccc3)C2)CC1)c1cc2ccccc2[nH]1 (centres undefined) : 1210

Consider CC(Cc1ccc(OCCN2CCN(c3cccc(C(F)(F)F)c3)CC2)cc1)NCC(O)c1cccc(C(F)(F)F)c1 (centres undefined) . Its measured XC50 is 181

The compound listed as COc1ccc(NC(=O)/C=C/c2ccccc2Cl)cc1OCCN1CCC(c2nc3ccccc3[nH]2)CC1 shows XC50 equal to 858
